Origin of measurements: ChEMBL document CHEMBL5236596

Recorded IC50, one value per entry.
# studySystem: Glucocorticoid receptor (Homo sapiens)
# Sequence (P04150 whole entry): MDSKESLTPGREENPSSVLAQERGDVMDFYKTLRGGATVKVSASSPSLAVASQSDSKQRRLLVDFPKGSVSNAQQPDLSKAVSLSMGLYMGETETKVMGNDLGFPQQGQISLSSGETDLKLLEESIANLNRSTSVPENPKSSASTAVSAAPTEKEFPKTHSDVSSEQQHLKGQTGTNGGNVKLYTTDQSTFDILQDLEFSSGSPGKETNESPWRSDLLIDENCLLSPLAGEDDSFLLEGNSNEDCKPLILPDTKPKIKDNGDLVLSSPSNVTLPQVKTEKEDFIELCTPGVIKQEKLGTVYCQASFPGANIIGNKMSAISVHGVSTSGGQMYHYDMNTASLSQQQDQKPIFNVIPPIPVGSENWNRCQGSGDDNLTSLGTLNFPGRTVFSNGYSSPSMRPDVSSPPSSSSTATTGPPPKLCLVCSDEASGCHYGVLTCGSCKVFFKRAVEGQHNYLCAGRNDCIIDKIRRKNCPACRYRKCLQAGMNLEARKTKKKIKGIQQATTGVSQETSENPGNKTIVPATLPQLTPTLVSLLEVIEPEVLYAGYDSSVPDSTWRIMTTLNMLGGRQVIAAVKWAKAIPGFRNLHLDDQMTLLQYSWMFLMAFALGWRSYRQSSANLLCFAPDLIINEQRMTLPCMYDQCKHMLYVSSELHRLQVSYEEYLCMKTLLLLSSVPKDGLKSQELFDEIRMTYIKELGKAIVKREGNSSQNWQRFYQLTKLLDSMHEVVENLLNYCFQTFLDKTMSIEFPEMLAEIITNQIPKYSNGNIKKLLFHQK
# methodSummary: Modulation of glucocorticoid receptor (unknown origin) transfected in human HeLa cells assessed as transrepression by measuring inhibition of PMA-induced AP-1 signalling incubated for 18 hrs by dual-luciferase reporter based assay
# Format: cell-based

// below: answered compounds
O=C(c1ccco1)N1CCCc2cc(N(S(=O)(=O)c3ccc(C(F)(F)F)cc3)S(=O)(=O)c3ccc(C(F)(F)F)cc3)ccc21 | > 50 µM
COc1cc(C)c(Cl)cc1S(=O)(=O)Nc1ccc2c(c1)CCCN2C(=O)c1ccc(C)cc1F | > 10 µM
CCCCS(=O)(=O)N(c1ccc2c(c1)CCCN2C(=O)c1ccco1)S(=O)(=O)CCCC | 2.84 µM

Query (compound): `O=C(c1ccco1)N1CCCc2cc(N(S(=O)(=O)Cc3ccccc3)S(=O)(=O)Cc3ccccc3)ccc21` ; field requested: IC50
> 50 µM
